# maps each entry to its Kd
system.tested: biotinylated human DLL3 protein expressed as a human IgG1 fusion protein (human) (UniProt Q9NYJ7)
Sequence (Q9NYJ7 27-492): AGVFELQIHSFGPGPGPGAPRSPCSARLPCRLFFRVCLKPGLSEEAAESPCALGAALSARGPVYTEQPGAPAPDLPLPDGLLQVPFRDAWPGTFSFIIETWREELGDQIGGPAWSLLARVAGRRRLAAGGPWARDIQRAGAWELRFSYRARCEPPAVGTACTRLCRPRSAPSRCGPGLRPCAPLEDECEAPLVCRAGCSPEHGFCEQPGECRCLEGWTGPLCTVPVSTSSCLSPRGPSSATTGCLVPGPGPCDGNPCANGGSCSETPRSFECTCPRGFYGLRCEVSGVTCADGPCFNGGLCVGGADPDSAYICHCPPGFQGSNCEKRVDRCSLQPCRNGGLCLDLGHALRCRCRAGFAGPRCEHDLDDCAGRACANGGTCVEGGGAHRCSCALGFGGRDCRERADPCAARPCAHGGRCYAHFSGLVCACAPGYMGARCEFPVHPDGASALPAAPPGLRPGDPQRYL
protocol.text: Octet, biotinylated human DLL3-IgG1 fusion on streptavidin tips, single 50 nM, conditioned medium (relative KD)
Field format: number, assumed nM, no unit text.

Here are 3 binders together with their reported answers.
binder	readout.type	experimental.result
anti-DLL3 trispecific protein, DLL3 binder 2E06 (protein, part only; not given: CD3 binder and albumin binder, part only) chain, part: EVQLVESGGGLVQPGGSLTLSCVASGSTSSINAMGWYRRAPGKQRELVAGISSDGSKVYASSVKGRFTISRDNAKNSVYLQMNSLRAEDTAVYYCYYFRTVRGSSMRYWGQGTLVTVSSGGGGSGGGSGGGGSGGGSHHHHHH	Kd	11
anti-DLL3 trispecific protein, DLL3 binder 4G02 (protein, part only; not given: CD3 binder and albumin binder, part only) chain, part: EVQLVESGGGLVQPGGSLTLSCAASGSSVKFLSMAWYRQAPGKKRELVAGISRDGSTDYIDSVKGRFTISRDNAKNSVYLQMNSLRAEDTAVYYCYAYRWTTRHTYWGQGTLVTVSSGGGGSGGGSGGGGSGGGSHHHHHH	Kd	15
anti-DLL3 trispecific protein, DLL3 binder 3G06 (protein, part only; not given: CD3 binder and albumin binder, part only) chain, part: EVQLVESGGGLVQPGGSLTLSCAASGSSVKFLSMAWYRQAPGKKRELVAGISADGSTLYIDSVKGRFTISRDNAKNSVYLQMNSLRAEDTAVYYCYAYRWTTRRTYWGQGTLVTVSSGGGGSGGGSGGGGSGGGSHHHHHH	Kd	12

Turning to the following binder.
The binder anti-DLL3 trispecific protein, DLL3 binder 4B06 (protein, part only; not given: anti-CD3 fragment and anti-albumin domain, part only) chain, part: EVQLVESGGGLVQPGGSLTLSCAASGSRVSFLSMAWYRQAPGKKRELVAGISADGSTDYFDSVKGRFTISRDNAKNSVYLQMNSLRAEDTAVYYCYAYRWTRRYTYWGQGTLVTVSSGGGGSGGGSGGGGSGGGSHHHHHH showed Kd equal to 16
